Target: GDP-bound KRAS wild-type protein (Homo sapiens)
Sequence (P01116 whole entry): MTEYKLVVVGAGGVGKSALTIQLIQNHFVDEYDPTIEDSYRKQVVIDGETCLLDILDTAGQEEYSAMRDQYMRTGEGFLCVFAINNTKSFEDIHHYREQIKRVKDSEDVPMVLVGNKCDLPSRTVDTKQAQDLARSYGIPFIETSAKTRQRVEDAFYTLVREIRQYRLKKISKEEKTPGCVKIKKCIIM
Experiment: Binding to KRAS by surface plasmon resonance (SPR), Single Cycle Kinetics
Conditions: SPR Single Cycle Kinetics, GDP-bound KRAS wild-type protein, 1:1 binding model; read-out: KRAS KD
Where a SMILES comes first, the peptide text is derived from it. Bridges are numbered along the chain shown (N, C = ends). [ ]: non-standard residue; d: D form. The star is where a group is joined. hPhe(3,5-F2-4-CF3) = N[C@@H](CCc1cc(F)c(C(F)(F)F)c(F)c1)C(=O)O; hPhe(3-Cl-4-CF3) = N[C@@H](CCc1ccc(C(F)(F)F)c(Cl)c1)C(=O)O; NPrPhe(4-CF3) = CCCN[C@@H](Cc1ccc(C(F)(F)F)cc1)C(=O)O; NMeGly(cPent) = CN[C@H](C(=O)O)C1CCCC1; Pro(4,4-F2) = O=C(O)[C@@H]1CC(F)(F)CN1; αMeCha = C[C@](N)(CC1CCCCC1)C(=O)O; Hyp = O=C(O)[C@@H]1C[C@@H](O)CN1; NMeD = CN[C@@H](CC(=O)O)C(=O)O; NMeL = CN[C@@H](CC(C)C)C(=O)O; Morpholide = C1CN(*)CCO1; Ac5c = NC1(C(=O)O)CCCC1; Ethyl(2,2-F2) = FC(F)C*; Ac4c = NC1(C(=O)O)CCC1; NEtG = CCNCC(=O)O; Sar = CNCC(=O)O
Assign classes using reported Kd values and the ranges LOW: < 0.1 nM; MEDIUM: ≥ 0.1 nM and < 0.6 nM; HIGH: ≥ 0.6 nM, please.

Past entries and their recorded results:
# Molecule, Class name
records = [
    ("CCO[C@@H]1C[C@H]2C(=O)NC3(CC(C)(C)C3)C(=O)N(C)[C@@H](C3CCCC3)C(=O)N(C)[C@H](C(=O)N3CCCC3)CC(=O)N(C)[C@H]3CCC/C=C/c4ccc(cc4)C[C@@H](C(=O)N(C)CC(=O)N[C@@H](CCc4cc(F)c(C(F)(F)F)c(F)c4)C(=O)N2C1)N1CC/C=C\\C[C@@H](C1=O)N(C)C(=O)CN(C)C(=O)[C@H]([C@@H](C)CC)NC3=O", "LOW"),
    ("CCCN1C(=O)CN(C)C(=O)CN(C)C(=O)[C@H]([C@@H](C)CC)NC(=O)[C@H](CC(C)C)N(C)C(=O)C[C@@H](C(=O)N2CCOCC2)N(C)C(=O)[C@H](C2CCCC2)N(C)C(=O)C2(CCCC2)NC(=O)[C@@H]2C[C@@H](OCC(F)F)CN2C(=O)[C@H](CCc2ccc(C(F)(F)F)c(Cl)c2)NC(=O)CN(C)C(=O)[C@@H]1Cc1ccc(C(F)(F)F)cc1 [PP0246] ([NMeL]I[Sar][Sar][NPrPhe(4-CF3)][Sar][hPhe(3-Cl-4-CF3)][Hyp](Ethyl(2,2-F2))[Ac5c][NMeGly(cPent)][NMeD]-Morpholide; lactam N-11)", "LOW"),
    ("CCCN1C(=O)CN(C)C(=O)CN(CC)C(=O)[C@H]([C@@H](C)CC)NC(=O)[C@H](CC(C)C)N(C)C(=O)C[C@@H](C(=O)N2CCOCC2)N(C)C(=O)[C@H](C2CCCC2)N(C)C(=O)C2(CCC2)NC(=O)[C@@H]2CC(F)(F)CN2C(=O)[C@H](CCc2ccc(C(F)(F)F)c(Cl)c2)NC(=O)CN(C)C(=O)[C@@H]1Cc1ccc(C(F)(F)F)cc1 [PP0400] ([NMeL]I[NEtG][Sar][NPrPhe(4-CF3)][Sar][hPhe(3-Cl-4-CF3)][Pro(4,4-F2)][Ac4c][NMeGly(cPent)][NMeD]-Morpholide; lactam N-11)", "MEDIUM"),
    ("CCCN1C(=O)CN(C)C(=O)CN(C)C(=O)[C@H]([C@@H](C)CC)NC(=O)[C@H](CC(C)C)N(C)C(=O)C[C@@H](C(=O)N2CCOCC2)N(C)C(=O)[C@H](C2CCCC2)N(C)C(=O)[C@](C)(CC2CCCCC2)NC(=O)[C@@H]2CCCN2C(=O)[C@H](CCc2cc(F)c(C(F)(F)F)c(F)c2)NC(=O)CN(C)C(=O)[C@@H]1Cc1ccc(C(F)(F)F)cc1 [PP0760] ([NMeL]I[Sar][Sar][NPrPhe(4-CF3)][Sar][hPhe(3,5-F2-4-CF3)]P[αMeCha][NMeGly(cPent)][NMeD]-Morpholide; lactam N-11)", "HIGH"),
    ("CCCN1C(=O)CN(C)C(=O)CN(C)C(=O)[C@H]([C@@H](C)CC)NC(=O)[C@H](CC(C)C)N(C)C(=O)C[C@@H](C(=O)N2CCOCC2)N(C)C(=O)[C@H](C2CCCC2)N(C)C(=O)C2(CCCC2)NC(=O)[C@@H]2C[C@@H](O)CN2C(=O)[C@H](CCc2ccc(C(F)(F)F)c(Cl)c2)NC(=O)CN(C)C(=O)[C@@H]1Cc1ccc(C(F)(F)F)cc1 [PP0241] ([NMeL]I[Sar][Sar][NPrPhe(4-CF3)][Sar][hPhe(3-Cl-4-CF3)][Hyp][Ac5c][NMeGly(cPent)][NMeD]-Morpholide; lactam N-11)", "LOW"),
]

QUERY: Hello team, could you let me know which band the following molecule falls into: CC[C@H](C)[C@@H]1NC(=O)[C@H](CC(C)C)N(C)C(=O)C[C@@H](C(=O)N2CCOCC2)N(C)C(=O)[C@H](C2CCCC2)N(C)C(=O)C2(CCCCC2)NC(=O)[C@@H]2CCCN2C(=O)[C@H](CCc2cc(F)c(C(F)(F)F)c(F)c2)NC(=O)CN(C)C(=O)[C@H](Cc2ccc(C(F)(F)F)cc2)N2CCCCC[C@@H](C2=O)N(C)C(=O)CN(C)C1=O
RESULT: HIGH

QUERY: Same again, this time with CCCN1C(=O)CN(C)C(=O)CN(CC)C(=O)[C@H]([C@@H](C)CC)NC(=O)[C@H](CC(C)C)N(C)C(=O)C[C@@H](C(=O)N(C)C)NC(=O)[C@H](C2CCCC2)N(C)C(=O)C2(CCC2)NC(=O)[C@@H]2CCCN2C(=O)[C@H](CCc2ccc(C(F)(F)F)c(Cl)c2)NC(=O)CN(C)C(=O)[C@@H]1Cc1ccc(C(F)(F)F)cc1 [PP0368] ([NMeL]I[NEtG][Sar][NPrPhe(4-CF3)][Sar][hPhe(3-Cl-4-CF3)]P[Ac4c][NMeGly(cPent)]D-NMe2; lactam N-11)
RESULT: HIGH

QUERY: Same again, this time with CC[C@H](C)[C@@H]1NC(=O)[C@H](CC(C)C)NC(=O)C[C@@H](C(=O)N2CCOCC2)N(C)C(=O)[C@H](C2CCCC2)N(C)C(=O)C2(CCCC2)NC(=O)[C@@H]2CCCN2C(=O)[C@H](CCc2cc(F)c(C(F)(F)F)c(F)c2)NC(=O)CN(C)C(=O)[C@H](Cc2ccc(C(F)(F)F)cc2)N2CCCC[C@@H](C2=O)N(C)C(=O)CN(C)C1=O
RESULT: MEDIUM
